Notes on IC50 obtained with hCRTH2 receptor (Homo sapiens (Human), UniProt Q9Y5Y4).
Sequence (Q9Y5Y4 whole entry): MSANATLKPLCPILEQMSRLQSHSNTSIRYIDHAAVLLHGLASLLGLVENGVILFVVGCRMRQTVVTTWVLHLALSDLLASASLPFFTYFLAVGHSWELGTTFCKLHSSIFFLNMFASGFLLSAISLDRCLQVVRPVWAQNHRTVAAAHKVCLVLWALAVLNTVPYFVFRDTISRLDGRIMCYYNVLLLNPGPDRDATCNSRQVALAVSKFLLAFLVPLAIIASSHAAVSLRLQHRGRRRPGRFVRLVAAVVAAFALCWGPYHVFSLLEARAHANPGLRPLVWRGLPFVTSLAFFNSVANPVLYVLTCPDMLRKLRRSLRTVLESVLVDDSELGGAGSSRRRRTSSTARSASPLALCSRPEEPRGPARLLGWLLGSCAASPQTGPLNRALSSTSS
measured-metric: IC50 (nM)

Worked set:
| molecule | study-system | readout-number |
| --- | --- | --- |
| COc1ccc(CC(=O)O)cc1-c1ccc(F)c2c1CN(C(=O)CC1CCCCC1)CC2 | hCRTH2 receptor (Homo sapiens (Human), UniProt Q9Y5Y4) | 176 |
| COc1ccc(CC(=O)O)cc1-c1ccc(F)c2c1CN(C(=O)CCn1nc(C)c3ccccc31)CC2 | hCRTH2 receptor (Homo sapiens (Human), UniProt Q9Y5Y4) | 16.3 |
| COc1ccc(CC(=O)O)cc1-c1ccc(C(F)(F)F)c2c1CN(C(=O)OCc1ccccc1)CC2 | hCRTH2 receptor (Homo sapiens (Human), UniProt Q9Y5Y4) | 67.8 |

a. CCOc1ccc(CC(=O)O)cc1-c1ccc(F)c2c1CN(C(=O)CC1CC(C)(C)Oc3ncccc31)CC2 (racemic)
b. COc1ccc(CC(=O)O)cc1-c1ccc(Cl)c2c1CN(C(=O)CCCc1ccccc1F)CC2
query: Higher IC50 between a and b ? Lab log: write the label of the selected item as the result.
result: b

----------
Tested on: eosinophils
Test: Eosinophil shape change assay with human plasma
Type: cell-based
Conditions: Homo sapiens, Eosinophil, human plasma (50%), PGD2 100 nM activation, antagonistic activity
measured-metric: IC50 (nM)

| molecule | measured-metric | units-of-measure | readout-number |
| --- | --- | --- | --- |
| COc1ccc(CC(=O)O)cc1-c1ccc(F)c2c1CN(C(=O)CC1CC(C)(C)Oc3ccccc31)CC2 (racemic) | IC50 | nM | 31 |
| CN(C)c1ccc(CC(=O)O)cc1-c1ccc(F)c2c1CN(C(=O)OCc1ccccc1)CC2 | IC50 | nM | 17 |
| COc1cc(CC(=O)O)ccc1-c1ccc(F)c2c1CN(C(=O)CC1CCOc3ccccc31)CC2 (racemic) [Example 359] | IC50 | nM | 28 |
| CCOc1cc(CC(=O)O)ccc1-c1ccc(F)c2c1CN(C(=O)CC1(c3ccccc3)CC1)CC2 | IC50 | nM | 19 |
| COc1cc(CC(=O)O)ccc1-c1ccc(F)c2c1CN(C(=O)CC1CCOc3ccccc31)CC2 (stereo not drawn) [Example 200] | IC50 | nM | 50 |

P. CCOc1ccc(CC(=O)O)cc1-c1ccc(F)c2c1CN(C(=O)OCc1cc(Cl)ccc1F)CC2
Q. O=C(O)Cc1cc2c(c(-c3ccc(F)c4c3CN(C(=O)OCc3ccccc3)CC4)c1)OCCO2
R. CCOc1ccc(CC(=O)O)cc1-c1ccc(F)c2c1CN(C(=O)O[C@@H](C)c1ccccc1)CC2
query: Sort low-to-high on IC50, please. Answer by listing the labels in the order asked for.
result: P, R, Q
(P: 20 nM, R: 46 nM, Q: 133 nM)

----------
Biological target: hCRTH2 receptor (Homo sapiens (Human))
measured-metric: IC50 (nM)

| compound-string | measured-metric | units-of-measure | readout-number |
| --- | --- | --- | --- |
| O=C(O)Cc1ccc(Cl)c(-c2ccc(F)c3c2CN(C(=O)OCc2ccccc2)CC3)c1 | IC50 | nM | 12.8 |
| COc1ccc(CC(=O)O)cc1-c1ccc(F)c2c1CN(C(=O)OCc1cc(C)nn1C)CC2 | IC50 | nM | 6.87 |
| COc1ccc(CC(=O)O)cc1-c1ccc(F)c2c1CN(C(=O)CCn1ncc3cc(F)ccc31)CC2 | IC50 | nM | 9.54 |

----------
Let's go through some IC50 measurements on hCRTH2 receptor (Homo sapiens (Human)) together.
measured-metric: IC50 (nM)

| compound | study-system | measured-metric | readout-number |
| --- | --- | --- | --- |
| CC(C)Oc1ccc(CC(=O)O)cc1-c1ccc(F)c2c1CN(C(=O)CC(C)(C)c1ccccc1)CC2 | hCRTH2 receptor (Homo sapiens (Human)) | IC50 | 5.9 |

P. CCOc1ccc(CC(=O)O)cc1-c1ccc(F)c2c1CN(C(=O)CCc1ccccn1)CC2
Q. CCOCC(=O)N1CCc2c(F)ccc(-c3cc(CC(=O)O)ccc3OC)c2C1
query: Min IC50? P | Q Field: selected label. Fill in the label of the entry you choose.
result: P

1. O=C(O)Cc1ccc(OCC(F)(F)F)c(-c2ccc(F)c3c2CN(C(=O)CC2COCc4ccccc42)CC3)c1 (racemic)
2. CCOc1ccc(CC(=O)O)cc1-c1ccc(F)c2c1CN(C(=O)OCCC(C)(C)O)CC2
query: Returns the identifier with the smallest measured IC50 among 1 and 2 . Answer = label.
result: 1
(1: 3.4 nM, 2: 14 nM)

a. CC(C)Oc1ccc(OCC(=O)O)cc1-c1ccc(F)c2c1CN(C(=O)OCc1ccccc1)CC2
b. CCOc1cc(CC(=O)O)ccc1-c1ccc(F)c2c1CN(C(=O)OCc1cc(Cl)ccc1F)CC2
query: Response body: label of entry with the larger IC50; valid values a , b . Answer format: the label of the selected item.
result: a
(a: 7.94 nM, b: 2 nM)

P. COc1ccc(CC(=O)O)cc1-c1ccc(F)c2c1CN(C(=O)CCc1cccc(C)n1)CC2
Q. O=C(O)Cc1ccc(OC(F)F)c(-c2ccc(F)c3c2CN(C(=O)OCc2ccccc2)CC3)c1
R. CCOc1ccc(CC(=O)O)cc1-c1ccc(F)c2c1CN(C(=O)[C@@H]1C[C@H]1c1ccccn1)CC2 (racemic)
query: Order the entries by their reported IC50, beginning at the minimum. Returns: the labels listed in the requested order.
result: R, Q, P

----------
Test system: eosinophils
Experiment: Eosinophil shape change assay with human plasma
Assay type: cell-based
Conditions: Homo sapiens, Eosinophil, human plasma (50%), PGD2 100 nM activation, antagonistic activity
pIC50: −log10 of the molar value.
measured-metric: pIC50

| compound | pIC50 |
| --- | --- |
| CCOc1ccc(CC(=O)O)cc1-c1ccc(F)c2c1CN(C(=O)C[C@@H](C)c1ccccc1)CC2 [Example 221] | 7.47 |

P. CCOc1ccc(CC(=O)O)cc1-c1ccc(F)c2c1CN(C(=O)OCc1cccc(C)n1)CC2 [Example 371]
Q. CCOc1ccc(CC(=O)O)cc1-c1ccc(F)c2c1CN(C(=O)CC(C)c1ccc(F)cc1)CC2 (stereo not shown) [Example 211]
query: Rank P against Q by their pIC50 values and give the higher one. Field: selected label. Fill in the label of the entry you choose.
result: Q

----------
# hCRTH2 receptor (Homo sapiens (Human)): IC50 values follow
measured-metric: IC50 (nM)

1. COc1ccc(CC(=O)O)cc1-c1ccc(Cl)c2c1CN(C(=O)CCn1ncc3ccccc31)CC2
2. O=C(O)Cc1ccc(OCC(F)(F)F)c(-c2ccc(F)c3c2CN(C(=O)CC2CCOc4ccccc42)CC3)c1 (racemic)
3. O=C(O)Cc1ccc(F)c(-c2ccc(F)c3c2CN(C(=O)OCc2ccccc2)CC3)c1
query: Order field: IC50 | Direction: descending (largest first) Returns: the labels arranged in the requested order.
result: 1, 2, 3
